Each entry below carries its recorded self-cleavage.
B1: HDV Ribozyme (parent)
chain: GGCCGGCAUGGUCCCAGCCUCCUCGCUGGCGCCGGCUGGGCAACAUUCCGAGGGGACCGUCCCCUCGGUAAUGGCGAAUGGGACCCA

Variants of: B1
assay.protocol: self-cleavage, relative activity (ratio to wild type); higher = more cleavage; co-transcriptional

G11A G17A :: 0.544
C7A G10A :: 0.0831
G50A U60G :: 0.514
A45U C86G :: 0.795

Note: attention shifts to another entry.
Which self-cleavage value is on record for G50U C57U ? 1.17
